System Name: T1, human TPO receptor (MPL) expressed on Ba/F3 cells (human, UniProt P40238 26-635)
T1 sequence (looked up): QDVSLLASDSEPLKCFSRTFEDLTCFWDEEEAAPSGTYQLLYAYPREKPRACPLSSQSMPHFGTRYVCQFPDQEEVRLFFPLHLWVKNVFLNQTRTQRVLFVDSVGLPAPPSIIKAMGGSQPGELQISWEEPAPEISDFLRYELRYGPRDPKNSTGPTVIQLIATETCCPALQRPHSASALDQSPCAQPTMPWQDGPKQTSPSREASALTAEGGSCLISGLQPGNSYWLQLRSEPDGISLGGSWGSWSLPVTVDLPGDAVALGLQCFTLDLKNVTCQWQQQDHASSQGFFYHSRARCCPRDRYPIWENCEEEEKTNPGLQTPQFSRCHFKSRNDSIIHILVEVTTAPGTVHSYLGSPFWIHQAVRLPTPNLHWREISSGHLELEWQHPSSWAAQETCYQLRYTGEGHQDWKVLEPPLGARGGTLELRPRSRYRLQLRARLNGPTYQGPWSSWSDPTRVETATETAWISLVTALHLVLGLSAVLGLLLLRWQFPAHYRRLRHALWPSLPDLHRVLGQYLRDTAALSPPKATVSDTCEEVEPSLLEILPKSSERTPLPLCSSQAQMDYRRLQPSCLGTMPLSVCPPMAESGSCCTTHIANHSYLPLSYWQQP
Procedure Summary: cell-based or functional assay
Measured Property: ED50, TPO-like agonist activity, proliferation of BaF/mpl cells (WST-8) (µM)

Binder	Quantity Unit	Recorded Result
12B5Fab fragment (Fab, V domains shown) VH: QVQLVQSGGGLVRPGGSLSLSCAVSGITLRTYGMHWVRQAPGKGLEWVAGISFDGRSEYYADSVQGRFTISRDSSKNTLYLQMNSLRAEDTAVYYCARGAHYGFDIWGQGTMVTVSS VL: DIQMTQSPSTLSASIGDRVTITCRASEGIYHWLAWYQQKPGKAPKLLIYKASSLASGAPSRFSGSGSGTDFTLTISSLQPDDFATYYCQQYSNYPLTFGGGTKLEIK	µM	34.7

Data credit: patent EP1327680B1
